experiment_notes: qHTS of pediatric cancer cell lines to identify multiple opportunities for drug repurposing: Primary screen for NB1643 cells (AID 1347099); further: nearly all actives have a fitted effect of over 50% in size
condition_context: NB1643 neuroblastoma viability, CellTiter-Glo luminescence, 48 h; series mostly up to 46 µM
Results filed as inconclusive are left out. Active and inactive are the calls of the source. The call rests on the fitted dose curve; in most records, active means well fitted cell-killing curve with a large enough effect; inconclusive means small, poorly fitted or top-dose-only effect; inactive means no such curve, though single readings can be large or run the other way.
Labels: 1 = active, -1 = inactive

INSERT INTO assay_data (compound, category_label) VALUES
  ('Cc1cccc2c1CC[C@H](CN1CCC(c3c(Cl)cccc3Cl)CC1)C[C@@H]2O', -1),
  ('O=c1[nH]c(=O)n([C@H]2C[C@@H](O)[C@@H](CO)O2)cc1I', -1),
  ('Cc1nn(Cc2ccccc2Cl)c(C)c1CN(C)CC(O)COc1ccc(Cl)cc1 (centres undefined)', 1),
  ('C[C@@H](O[C@H]1OCCN(Cc2n[nH]c(=O)[nH]2)[C@@H]1c1ccc(F)cc1)c1cc(C(F)(F)F)cc(C(F)(F)F)c1', 1),
  ('CC[C@H](CC#N)OC(=O)N[C@@H](C)c1cccc(NC(=O)Nc2ccc(-c3cnco3)c(OC)c2)c1', 1),
  ('CN(C)CCN(C)C(=O)c1ccc(NC(=O)Nc2ccc(-c3nc(N4CCOCC4)c4ccn(CC(F)(F)F)c4n3)cc2)cc1', 1),
  ('COc1nccc(-c2c(-c3ccc(F)cc3)ncn2C2CCC(O)CC2)n1 (centres undefined)', -1),
  ('CCC=CC[C@H]1C(=O)CC[C@@H]1CC(=O)OC', -1),
  ('COc1cc(Cl)cn2c(-c3cccc(NC4CNC4)n3)cnc12', 1);
